Tested on: hiPSC-CMs
measurement notes: Intracellular prodrug, cleavage intermediate metabolite and NTP metabolite concentrations in hiPSC-CMs
Format: in vitro ADME, human
experimental context: hiPSC-CMs, 10 μM prodrug alone, 4 Hours; BLOQ = below 17 pmol/million cells
observation type: Intracellular Concentration, Cleavage Intermediate Metabolite

INSERT INTO results (molecule, result) VALUES
  ('C#C[C@]1(C)[C@@H](O)[C@@H](COP(=O)(N[C@H](C)C(=O)OC(C)C)Oc2ccccc2)O[C@H]1n1ccc(=O)[nH]c1=O (some centres unmarked)', 'BLOQ'),
  ('CC(C)OC(=O)[C@@H](C)NP(=O)(OC[C@H]1O[C@@H](n2ccc(=O)[nH]c2=O)[C@](C)(F)[C@@H]1O)Oc1ccccc1 (some centres unmarked)', 'BLOQ'),
  ('CC(C)OC(=O)C(C)NP(=O)(OCC1OC(n2ccc(=O)[nH]c2=O)C(C)(F)C1O)Oc1ccccc1 (centres unmarked) [MNI-6]', 'B LOQ'),
  ('CC(C)OC(=O)C(C)NP(=O)(OCC1OC(n2ccc(=O)[nH]c2=O)C(C)(F)C1O)Oc1ccccc1 (centres unmarked) [MNI-5]', '121.0 ± 6.24 pmol/million cells'),
  ('CC(C)OC(=O)[C@@H](C)NP(=O)(OC[C@H]1O[C@@H](n2ccc(=O)[nH]c2=O)[C@](C)(Cl)[C@@H]1O)Oc1ccccc1 (some centres unmarked)', 'BLOQ');

---

study system: Cav1.2 (Homo sapiens, UniProt Q13936)
Construct: expressed in transfected cells
Sequence (Q13936 whole entry): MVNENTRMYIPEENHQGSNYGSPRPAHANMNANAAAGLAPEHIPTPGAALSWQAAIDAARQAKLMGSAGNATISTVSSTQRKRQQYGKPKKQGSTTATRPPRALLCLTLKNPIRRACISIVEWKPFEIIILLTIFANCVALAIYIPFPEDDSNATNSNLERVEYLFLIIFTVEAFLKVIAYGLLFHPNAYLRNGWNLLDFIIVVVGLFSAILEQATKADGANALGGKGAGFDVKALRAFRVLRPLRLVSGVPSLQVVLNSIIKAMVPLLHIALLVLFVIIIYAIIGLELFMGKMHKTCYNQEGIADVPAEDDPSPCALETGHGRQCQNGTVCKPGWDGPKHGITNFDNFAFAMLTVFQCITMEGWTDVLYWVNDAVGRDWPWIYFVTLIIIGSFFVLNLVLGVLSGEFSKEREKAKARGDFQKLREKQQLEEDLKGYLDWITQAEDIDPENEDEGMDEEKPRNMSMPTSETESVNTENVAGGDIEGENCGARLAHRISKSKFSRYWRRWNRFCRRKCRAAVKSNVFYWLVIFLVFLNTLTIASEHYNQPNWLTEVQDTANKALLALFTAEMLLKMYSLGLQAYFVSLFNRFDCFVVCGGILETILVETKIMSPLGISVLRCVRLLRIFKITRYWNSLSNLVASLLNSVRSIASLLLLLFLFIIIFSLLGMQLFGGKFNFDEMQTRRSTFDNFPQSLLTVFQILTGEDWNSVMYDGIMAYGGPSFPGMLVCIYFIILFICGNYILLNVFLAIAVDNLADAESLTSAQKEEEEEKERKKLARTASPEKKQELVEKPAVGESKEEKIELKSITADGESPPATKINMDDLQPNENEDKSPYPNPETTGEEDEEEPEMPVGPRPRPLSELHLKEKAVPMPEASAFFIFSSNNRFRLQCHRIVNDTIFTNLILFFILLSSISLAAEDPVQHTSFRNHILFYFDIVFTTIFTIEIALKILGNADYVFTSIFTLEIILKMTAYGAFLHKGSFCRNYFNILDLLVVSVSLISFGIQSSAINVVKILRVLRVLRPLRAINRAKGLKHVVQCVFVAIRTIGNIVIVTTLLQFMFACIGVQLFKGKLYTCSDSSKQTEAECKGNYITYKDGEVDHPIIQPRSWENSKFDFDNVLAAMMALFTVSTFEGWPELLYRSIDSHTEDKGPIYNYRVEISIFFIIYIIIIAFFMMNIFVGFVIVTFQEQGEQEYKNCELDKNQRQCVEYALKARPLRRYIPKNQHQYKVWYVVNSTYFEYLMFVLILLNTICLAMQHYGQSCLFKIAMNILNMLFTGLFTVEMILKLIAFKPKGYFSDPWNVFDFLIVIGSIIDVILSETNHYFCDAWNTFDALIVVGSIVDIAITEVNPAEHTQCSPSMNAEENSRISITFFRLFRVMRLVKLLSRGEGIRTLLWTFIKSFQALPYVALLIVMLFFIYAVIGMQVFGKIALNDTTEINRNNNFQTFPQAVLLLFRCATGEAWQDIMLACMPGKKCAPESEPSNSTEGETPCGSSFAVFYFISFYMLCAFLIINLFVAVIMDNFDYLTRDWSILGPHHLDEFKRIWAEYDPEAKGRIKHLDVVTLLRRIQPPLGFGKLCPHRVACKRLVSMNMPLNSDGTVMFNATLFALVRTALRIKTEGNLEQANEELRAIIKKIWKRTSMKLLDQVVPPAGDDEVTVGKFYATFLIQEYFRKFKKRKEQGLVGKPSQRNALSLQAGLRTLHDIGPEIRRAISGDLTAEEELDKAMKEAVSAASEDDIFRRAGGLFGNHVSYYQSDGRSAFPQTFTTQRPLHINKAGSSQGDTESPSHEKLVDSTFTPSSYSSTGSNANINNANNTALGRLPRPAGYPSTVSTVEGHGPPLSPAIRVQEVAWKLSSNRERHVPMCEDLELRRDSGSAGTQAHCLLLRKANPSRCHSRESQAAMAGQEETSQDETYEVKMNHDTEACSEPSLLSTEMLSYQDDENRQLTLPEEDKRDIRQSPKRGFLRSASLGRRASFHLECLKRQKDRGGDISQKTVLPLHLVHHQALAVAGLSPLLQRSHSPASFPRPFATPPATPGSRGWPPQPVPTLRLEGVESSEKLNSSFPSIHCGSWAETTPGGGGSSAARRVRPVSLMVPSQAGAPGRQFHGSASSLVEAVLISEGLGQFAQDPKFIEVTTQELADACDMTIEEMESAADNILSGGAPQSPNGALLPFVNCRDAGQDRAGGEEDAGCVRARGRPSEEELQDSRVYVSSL
Sequence (Q08289 whole entry partner): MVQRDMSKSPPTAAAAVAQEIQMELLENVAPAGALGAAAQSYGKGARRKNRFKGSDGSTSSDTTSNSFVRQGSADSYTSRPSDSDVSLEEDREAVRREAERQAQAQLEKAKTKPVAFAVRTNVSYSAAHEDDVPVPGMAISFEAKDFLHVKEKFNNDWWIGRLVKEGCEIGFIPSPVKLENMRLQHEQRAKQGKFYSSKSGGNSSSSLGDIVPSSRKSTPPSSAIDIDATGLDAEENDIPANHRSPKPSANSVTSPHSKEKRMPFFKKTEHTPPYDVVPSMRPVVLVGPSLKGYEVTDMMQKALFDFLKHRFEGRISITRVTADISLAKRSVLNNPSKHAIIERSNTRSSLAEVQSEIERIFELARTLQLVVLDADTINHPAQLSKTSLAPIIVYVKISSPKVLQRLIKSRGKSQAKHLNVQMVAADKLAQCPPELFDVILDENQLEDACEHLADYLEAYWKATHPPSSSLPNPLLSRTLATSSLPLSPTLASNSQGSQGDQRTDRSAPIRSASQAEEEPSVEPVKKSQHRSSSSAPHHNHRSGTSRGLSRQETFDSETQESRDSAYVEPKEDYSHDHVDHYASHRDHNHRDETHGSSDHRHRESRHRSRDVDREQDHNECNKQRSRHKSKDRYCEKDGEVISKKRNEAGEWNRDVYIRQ
Sequence (P54289 25-946 partner limits assumed): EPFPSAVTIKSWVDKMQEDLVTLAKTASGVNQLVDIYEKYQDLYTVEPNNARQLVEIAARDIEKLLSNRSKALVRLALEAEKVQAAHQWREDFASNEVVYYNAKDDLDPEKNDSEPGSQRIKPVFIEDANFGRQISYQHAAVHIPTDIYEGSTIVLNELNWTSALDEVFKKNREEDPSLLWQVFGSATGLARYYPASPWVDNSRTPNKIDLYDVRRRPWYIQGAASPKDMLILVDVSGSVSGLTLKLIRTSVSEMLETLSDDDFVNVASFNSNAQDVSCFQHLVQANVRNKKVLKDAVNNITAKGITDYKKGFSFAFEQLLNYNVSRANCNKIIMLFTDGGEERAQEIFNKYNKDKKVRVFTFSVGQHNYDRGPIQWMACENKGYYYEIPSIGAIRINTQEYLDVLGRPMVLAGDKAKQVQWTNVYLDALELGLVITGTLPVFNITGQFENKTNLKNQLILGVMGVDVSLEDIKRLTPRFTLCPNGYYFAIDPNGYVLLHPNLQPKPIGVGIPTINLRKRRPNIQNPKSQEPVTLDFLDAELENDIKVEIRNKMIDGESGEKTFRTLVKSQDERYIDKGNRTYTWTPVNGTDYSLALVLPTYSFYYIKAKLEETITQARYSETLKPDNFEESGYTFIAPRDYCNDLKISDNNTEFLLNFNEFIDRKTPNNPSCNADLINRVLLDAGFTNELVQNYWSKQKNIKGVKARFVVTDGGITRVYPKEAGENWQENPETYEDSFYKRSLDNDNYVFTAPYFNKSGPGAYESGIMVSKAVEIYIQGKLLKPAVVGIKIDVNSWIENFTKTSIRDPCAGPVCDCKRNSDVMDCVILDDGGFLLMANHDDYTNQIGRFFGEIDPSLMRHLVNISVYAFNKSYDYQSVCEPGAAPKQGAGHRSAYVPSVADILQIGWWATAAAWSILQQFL
Sequence (P54289 947-1103 partner limits assumed): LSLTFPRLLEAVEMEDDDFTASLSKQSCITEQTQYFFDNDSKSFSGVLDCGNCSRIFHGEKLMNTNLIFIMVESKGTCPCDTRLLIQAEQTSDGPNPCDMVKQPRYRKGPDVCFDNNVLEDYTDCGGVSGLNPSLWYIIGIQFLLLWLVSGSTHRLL
measurement notes: Ca2+ influx in Cav1.2/HEK-293 cells (FDSS)
Assay type: cell-based
experimental context: HEK-293 cells overexpressing Cav1.2 channel proteins, pH 7.2; Cav1.2/HEK-293, 150 μM, compound alone; read-out: inhibition at maximal tested concentration
observation type: inhibition at 30 min, 150 µM (%)

INSERT INTO assay_data (compound, units_symbol, numeric_value) VALUES
  ('C#C[C@]1(C)[C@@H](O)[C@@H](COP(=O)(N[C@@H](C)C(=O)OC(C)C)Oc2ccccc2)O[C@H]1n1ccc(=O)[nH]c1=O (stereo partly shown)', '%', 21);

---

study system: Cav1.2 (Homo sapiens, UniProt Q13936)
Construct: expressed in transfected cells
measurement notes: Ca2+ influx in Cav1.2/HEK-293 cells (FDSS)
Assay type: cell-based
experimental context: Cav1.2/HEK-293, compound alone, n = 3 for each test; read-out: IC50 in repeat tests
observation type: IC50

INSERT INTO results (compound, observation_type, result) VALUES
  ('C#C[C@]1(C)[C@@H](O)[C@@H](COP(=O)(N[C@H](C)C(=O)OC(C)C)Oc2ccccc2)O[C@H]1n1ccc(=O)[nH]c1=O (stereo partly shown)', 'IC50', '27 to 45 µM');

---

Test system: hiPSC-CMs
measurement notes: Intracellular prodrug, cleavage intermediate metabolite and NTP metabolite concentrations in hiPSC-CMs
Assay type: in vitro ADME, human
experimental context: hiPSC-CMs, 10 μM prodrug + 0.3 μM amiodarone, 30 Min
observation type: Intracellular Concentration, Prodrug

INSERT INTO results (compound, result) VALUES
  ('CC(C)OC(=O)[C@@H](C)NP(=O)(OC[C@H]1O[C@@H](n2ccc(=O)[nH]c2=O)[C@](C)(Cl)[C@@H]1O)Oc1ccccc1 (stereo partly drawn)', '95.0 ± 6.7 pmol/million cells'),
  ('CC(C)OC(=O)[C@H](C)NP(=O)(OC[C@H]1O[C@@H](n2ccc(=O)[nH]c2=O)[C@](C)(Cl)[C@@H]1O)Oc1ccccc1 (stereo partly drawn)', '89.8 ± 12.5 pmol/million cells'),
  ('C#C[C@]1(C)[C@@H](O)[C@@H](COP(=O)(N[C@@H](C)C(=O)OC(C)C)Oc2ccccc2)O[C@H]1n1ccc(=O)[nH]c1=O (stereo partly drawn)', '69.9 ± 5.3 pmol/million cells'),
  ('CC(C)OC(=O)[C@@H](C)NP(=O)(OC[C@H]1O[C@@H](n2ccc(=O)[nH]c2=O)[C@](C)(F)[C@@H]1O)Oc1ccccc1 (stereo partly drawn)', '54.8 ± 3.3 pmol/million cells'),
  ('C#C[C@]1(C)[C@@H](O)[C@@H](COP(=O)(N[C@H](C)C(=O)OC(C)C)Oc2ccccc2)O[C@H]1n1ccc(=O)[nH]c1=O (stereo partly drawn)', '84.8 ± 12.4 pmol/million cells'),
  ('CC(C)OC(=O)[C@H](C)NP(=O)(OC[C@H]1O[C@@H](n2ccc(=O)[nH]c2=O)[C@](C)(F)[C@@H]1O)Oc1ccccc1 (stereo partly drawn) [sofosbuvir, reference compound]', '45.6 ± 2.0 pmol/million cells');
